- System: HOP-62 NSCLC
- assay_info: NCI-60 one-dose screen, 48 h
- measurement_context: 10 µM unless noted
- Description: Growth inhibition of the HOP-62 human Non-Small Cell Lung tumor cell line is measured as a screen for anti-cancer activity. Cells are grown in 96 well plates and exposed to the test compound for 48 hours. Compounds are tested at a single concentration, which is 10^-5 M for most compounds. The reported endpoint is percent growth (GI% or GIPRCNT), where numbers from 0 - 100% represent growth inhibition, and numbers from -100% - 0 represent cell death. […]
The panel holds about 83,000 compounds, 20% with a hit somewhere; the sample as a whole holds those more often. Active and inactive are the calls of the source. How the source made its calls: active means growth percent below 10; inactive means the rest.
Response enum: active, inactive

Worked set:
# structure_notation, group
rows = [
    ("O=C1Nc2ccc(Cl)cc2/C1=N/c1nc(-c2ccc(Cl)cc2)cs1", "active"),
    ("Cc1nccc2c3ccc(OCc4cn(-c5ccccc5)nn4)cc3n(CCCc3ccccc3)c12", "inactive"),
    ("COC(=O)c1nc(-c2ccccc2)oc1S(=O)(=O)n1nc(C)cc1N", "inactive"),
]

Below: the item to evaluate.
Tell me the recorded outcome of this test for CCC[S@](=O)c1ccc2nc(NC(=O)OC)[nH]c2c1 . inactive

====

- Tested on: SF-268 CNS
- assay_info: NCI-60 one-dose screen, 48 h
- measurement_context: 10 µM unless noted
The panel holds about 83,000 compounds, 20% with a hit somewhere; the sample as a whole holds those more often. Activity calls are given as the source filed them. The calls were made as follows: active = growth percent below 10; inactive = the rest.
Response enum: active, inactive

# structure_notation, tested_on, group
measured = [
    ("COc1ccc(-n2nc(C(=O)NCC(=O)O)nc2-c2ccccc2)cc1", "SF-268 CNS", "inactive"),
]

Tell me the recorded outcome of this test for C=C1C(=O)O[C@H]2[C@H]1CC/C(COC(=O)c1cccnc1N)=C\CC[C@@]1(C)O[C@@H]21 . inactive

Tell me the recorded outcome of this test for O=C1c2ccccc2C(=O)c2c1oc1c2c(=O)[nH]c2ccc(Cl)cc21 . active

Tell me the recorded outcome of this test for Cc1c(Cl)cccc1NC(=O)c1sc2nc3c(cc2c1N)CCCCCC3 . inactive

====

- Tested on: 786-0 renal
- assay_info: NCI-60 one-dose screen, 48 h (100 = growth as untreated, 0 = no growth, -100 = all killed)
- measurement_context: 10 µM unless noted
- Description: Cells are grown in 96 well plates and exposed to the test compound for 48 hours. Compounds are tested at a single concentration, which is 10^-5 M for most compounds. The reported endpoint is percent growth (GI% or GIPRCNT), where numbers from 0 - 100% represent growth inhibition, and numbers from -100% - 0 represent cell death. For example, a value of 40 represents 60% growth inhibition. A value of 0 means no net growth occurred over the course of the experiment. […]
This is part of a sample that, as a whole, favours compounds with a hit. Of some 83,000 tested, about 20% had one in any assay.
growth for assorted compounds
Enter your answer as a number in %; do not include the unit.

Reference set, count: 5
# compound, tested_on, reading_unit, growth
data = [
    ("COc1cc(C2=NN(C=O)C(c3cccc(Nc4ccnc5cc(C(F)(F)F)ccc45)c3)C2)cc(OC)c1OC (stereo unspecified)", "786-0 renal", "%", 63.3),
    ("COc1ccc(C(=O)c2cc(OC)c(OC)c(OC)c2)cc1OC(=O)C(Cl)(Cl)Cl", "786-0 renal", "%", 20.9),
    ("Fc1ccc(N/N=C/c2ccc(-n3cccn3)cc2)cc1", "786-0 renal", "%", 104),
    ("Cc1ccc(C2CC(c3ccc(Nc4nc(NCCO)nc(NCCO)n4)cc3)=NN2c2ccc(Cl)cc2)cc1 (stereo unspecified)", "786-0 renal", "%", 23.7),
    ("C[C@@H]1C(=O)[C@@H]2C[C@@H](O)[C@@H](O)C[C@]2(C)[C@H]2CC[C@@]3(C)C(=C12)CC[C@@H]3[C@@](C)(O)[C@H](O)CCC(C)(C)O", "786-0 renal", "%", 100),
]

We now examine a further compound.
Looking for the measured growth of COc1cc([C@H](C)c2ccc3ccccc3c2)cc(OC)c1OC , can you help? 39.6
